Test: Solubility studies, shake-flask method in 15 solvents
Assay type: physicochemical
Conditions: organic solvent or mixture, thermodynamic from solid; toluene, 20° C.; starting solid Form 1
readout.kind: solubility at 24 h

GET /value?item= Cc1ccc(C)c2oc(-c3nc(-c4ccc(C(=O)O)cc4)no3)cc12 &field=solubility at 24 h returns < 3000 µg/mL

---

Assay: Solubility studies, shake-flask method in 15 solvents
Type: physicochemical
Conditions: organic solvent or mixture, thermodynamic from solid; methyl tert-butyl ether, 20° C.; starting solid Form 1
readout.kind: solubility at 24 h

get_value(item= Cc1ccc(C)c2oc(-c3nc(-c4ccc(C(=O)O)cc4)no3)cc12 , readout=solubility at 24 h) returns < 3000 µg/mL
